Assign IC50 to each entry below.
- assay.system: bovine cardiac myofibrils (Bos taurus)
- Construct: full-length cardiac myosin in the context of the native sarcomere
- assay: Skinned bovine cardiac myofibril ATPase assay (PK/LDH-coupled)
- condition.details: inhibition of steady-state ATPase activity of bovine cardiac myofibrils; calcium at 75% activation (pCa75); PM12 buffer pH 6.8; read-out: CDMF75 IC50
Answers are plain numbers, in µM.

Give the measured IC50 of Cc1cc(NC(=O)C2CCc3cc(-c4noc(C5CC5)n4)ccc32)ccn1 (racemic) [Compound 20] .
13.9

Cool, now CCc1nc(-c2ccc3c(c2)CCC3C(=O)Nc2cnn(C)c2)no1 (centres unmarked)
15.9

Now, please, on to the next compound.
Reported IC50, compound CCc1nc(-c2ccc3c(c2)CCC32COC(=O)N2)no1 (single isomer, unassigned) [Compound 26B] : ____
1.6

====

- assay.system: bovine cardiac myofibrils (Bos taurus, UniProt Q9BE39)
- Construct: full-length cardiac myosin in the context of the native sarcomere; from tissue; host or cells: bovine cardiac left ventricular tissue, homogenized with detergent (triton X-100)
- Sequence (Q9BE39 whole entry): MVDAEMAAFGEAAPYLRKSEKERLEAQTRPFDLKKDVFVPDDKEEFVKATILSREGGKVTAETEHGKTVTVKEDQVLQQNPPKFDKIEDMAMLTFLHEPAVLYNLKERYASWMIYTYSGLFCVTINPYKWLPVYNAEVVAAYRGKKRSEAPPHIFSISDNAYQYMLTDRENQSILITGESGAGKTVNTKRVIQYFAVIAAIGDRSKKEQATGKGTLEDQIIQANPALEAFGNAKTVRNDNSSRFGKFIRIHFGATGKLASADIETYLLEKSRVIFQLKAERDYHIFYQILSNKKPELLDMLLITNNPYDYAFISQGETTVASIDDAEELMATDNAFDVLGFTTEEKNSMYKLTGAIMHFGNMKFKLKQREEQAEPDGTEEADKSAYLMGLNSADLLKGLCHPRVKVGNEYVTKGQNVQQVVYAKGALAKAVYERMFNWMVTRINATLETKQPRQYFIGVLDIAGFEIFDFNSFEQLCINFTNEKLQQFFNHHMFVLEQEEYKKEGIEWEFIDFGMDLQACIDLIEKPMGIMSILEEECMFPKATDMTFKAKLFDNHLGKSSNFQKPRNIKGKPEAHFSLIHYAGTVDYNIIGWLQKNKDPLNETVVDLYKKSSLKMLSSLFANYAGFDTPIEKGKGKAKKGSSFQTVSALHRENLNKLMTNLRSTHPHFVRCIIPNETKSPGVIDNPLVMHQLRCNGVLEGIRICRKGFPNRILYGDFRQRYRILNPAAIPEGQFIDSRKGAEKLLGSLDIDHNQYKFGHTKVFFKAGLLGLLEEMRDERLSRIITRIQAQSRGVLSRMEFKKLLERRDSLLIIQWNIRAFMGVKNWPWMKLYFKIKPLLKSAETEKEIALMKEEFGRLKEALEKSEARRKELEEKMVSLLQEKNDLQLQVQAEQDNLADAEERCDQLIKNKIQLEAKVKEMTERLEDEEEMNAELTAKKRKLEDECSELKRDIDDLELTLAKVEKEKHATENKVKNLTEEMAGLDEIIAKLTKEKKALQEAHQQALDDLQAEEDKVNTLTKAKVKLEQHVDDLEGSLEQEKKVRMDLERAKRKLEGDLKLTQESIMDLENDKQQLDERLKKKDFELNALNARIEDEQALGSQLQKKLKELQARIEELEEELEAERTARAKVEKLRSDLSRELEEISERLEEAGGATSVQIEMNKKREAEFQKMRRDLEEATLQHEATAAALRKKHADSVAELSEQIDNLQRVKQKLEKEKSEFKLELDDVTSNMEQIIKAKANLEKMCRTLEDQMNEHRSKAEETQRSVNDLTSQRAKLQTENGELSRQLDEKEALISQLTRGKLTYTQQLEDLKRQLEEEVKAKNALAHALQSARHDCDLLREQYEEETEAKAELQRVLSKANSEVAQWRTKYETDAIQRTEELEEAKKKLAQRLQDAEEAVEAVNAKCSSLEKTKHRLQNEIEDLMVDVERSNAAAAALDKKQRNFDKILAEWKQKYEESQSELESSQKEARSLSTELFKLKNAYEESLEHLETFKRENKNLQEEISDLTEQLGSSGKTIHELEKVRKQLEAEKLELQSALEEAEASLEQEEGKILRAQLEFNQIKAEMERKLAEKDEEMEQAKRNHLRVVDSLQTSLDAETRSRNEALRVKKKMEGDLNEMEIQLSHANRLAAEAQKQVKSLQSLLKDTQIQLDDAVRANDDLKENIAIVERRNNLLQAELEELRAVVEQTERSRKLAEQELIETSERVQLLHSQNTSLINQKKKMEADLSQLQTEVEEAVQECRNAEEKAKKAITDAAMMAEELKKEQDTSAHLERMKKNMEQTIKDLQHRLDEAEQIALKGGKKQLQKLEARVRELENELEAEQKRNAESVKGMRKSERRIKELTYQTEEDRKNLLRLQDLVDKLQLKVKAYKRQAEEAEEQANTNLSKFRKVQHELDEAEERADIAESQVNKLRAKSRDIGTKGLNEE
- Sequence (P85100 whole entry partner): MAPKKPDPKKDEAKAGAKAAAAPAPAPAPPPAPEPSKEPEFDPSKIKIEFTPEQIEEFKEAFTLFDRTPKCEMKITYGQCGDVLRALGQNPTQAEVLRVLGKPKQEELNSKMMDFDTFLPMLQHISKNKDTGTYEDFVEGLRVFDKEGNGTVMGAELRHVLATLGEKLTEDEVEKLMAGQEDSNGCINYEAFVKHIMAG
- Sequence (Q3SZE5 whole entry partner): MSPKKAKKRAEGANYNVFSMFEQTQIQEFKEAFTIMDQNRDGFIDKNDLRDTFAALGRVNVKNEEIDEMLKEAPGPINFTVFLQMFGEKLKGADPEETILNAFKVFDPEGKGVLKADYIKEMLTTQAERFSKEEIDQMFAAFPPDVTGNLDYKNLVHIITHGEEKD
- assay: Skinned bovine cardiac myofibril ATPase assay (PK/LDH-coupled)
- Type: biochemical
- condition.details: inhibition of steady-state ATPase activity of bovine cardiac myofibrils; calcium at 75% activation (pCa75); PM12 buffer pH 6.8; read-out: CDMF75 IC50
quantity.measured: pIC50
Answers are plain numbers, as −log10 of the molar value.

Can you give me pIC50 for all of these, one by one?
1. CC(C)c1nc(-c2ccc3c(c2)CCC32COC(=O)N2)no1 (single isomer, unassigned) [Compound 32A]
2. CC(C)c1nc(-c2ccc3c(c2)CCC32COC(=O)N2)no1 (racemic) [Compound 32]
3. Cc1cc(NC(=O)C2CCc3cc(-c4noc(C(C)C)n4)ccc32)ccn1 (single isomer, unassigned) [Compound 23A]
4. CCc1nc(-c2ccc3c(c2)OCC32COC(=O)N2)no1 (single isomer, unassigned) [Compound 41A]

[5.20, 4.94, 4.84, 6.00]

Give pIC50 for each of the items listed below.
1. Cc1cc(NC(=O)C2CCc3cc(-c4noc(C)n4)ccc32)ccn1 (single isomer, unassigned) [Compound 17A]
2. Cc1cc(NC(=O)C2CCc3cc(-c4noc(C(F)F)n4)ccc32)ccn1 (single isomer, unassigned) [Compound 14A]
3. CCc1nc(-c2ccc3c(c2)CCC3C(=O)Nc2ccnc(C)c2)no1 (racemic) [Compound 2]
4. O=C1NC2(CCc3cc(-c4noc(C5CC5)n4)ccc32)CO1 (single isomer, unassigned) [Compound 35B]
5. O=C1NC2(CCc3cc(-c4noc(C(F)F)n4)ccc32)CO1 (single isomer, unassigned) [Compound 38A]
6. Cc1nc(-c2ccc3c(c2)CCC32COC(=O)N2)no1 (single isomer, unassigned) [Compound 29B]

4.87
4.96
5.26
5.47
5.12
5.04

====

- assay.system: bovine cardiac myofibrils (Bos taurus, UniProt Q9BE39)
- Construct: full-length cardiac myosin in the context of the native sarcomere; from tissue; host or cells: bovine cardiac left ventricular tissue, homogenized with detergent (triton X-100)
- assay: Skinned bovine cardiac myofibril ATPase assay (PK/LDH-coupled)
- Format: biochemical
- condition.details: inhibition of steady-state ATPase activity of bovine cardiac myofibrils; calcium at 75% activation (pCa75); PM12 buffer pH 6.8
quantity.measured: CDMF75 IC15 (µM)
Answers are plain numbers, in µM.

Examples with their reported CDMF75 IC15 follow.
Which CDMF75 IC15 is reported with bovine cardiac myofibrils (Bos taurus, UniProt Q9BE39) for this entry: CCc1nc(-c2ccc3c(c2)CCC32COC(=O)N2)no1 (racemic) [Compound 26] ?
0.8

Also need CCc1nc(-c2ccc3c(c2)OCC32COC(=O)N2)no1 (racemic) [Compound 41] , thanks.
0.6

Lab note: each compound below needs its CDMF75 IC15 filled in.
1. CCc1nc(-c2ccc3c(c2)CCC3C(=O)Nc2ccnc(C)c2)no1 (racemic) [Compound 2]
2. Cc1cc(NC(=O)C2CCc3cc(-c4noc(C5CC5)n4)ccc32)ccn1 (racemic) [Compound 20]
3. CC(C)c1nc(-c2ccc3c(c2)CCC32COC(=O)N2)no1 (racemic) [Compound 32]

1.6
2.6
2.7

Give CDMF75 IC15 for each of the items listed below.
1. Cc1cc(NC(=O)C2CCc3cc(-c4noc(C(F)F)n4)ccc32)ccn1 (racemic) [Compound 14]
2. CCc1nc(-c2ccc3c(c2)CCC32COC(=O)N2)no1 (single isomer, unassigned) [Compound 26B]
3. CCc1nc(-c2ccc3c(c2)OCC32COC(=O)N2)no1 (single isomer, unassigned) [Compound 41A]
4. CCc1nc(-c2ccc3c(c2)CCC3C(=O)Nc2ccccc2)no1 (single isomer, unassigned) [Compound 8A]
5. CC(C)c1nc(-c2ccc3c(c2)CCC32COC(=O)N2)no1 (single isomer, unassigned) [Compound 32A]
6. Cc1cc(NC(=O)C2CCc3cc(-c4noc(C(C)C)n4)ccc32)ccn1 (single isomer, unassigned) [Compound 23A]
7. O=C1NC2(CCc3cc(-c4noc(C5CC5)n4)ccc32)CO1 (racemic) [Compound 35]

1. 4.4
2. 0.3
3. 0.2
4. 0.7
5. 1.5
6. 3.6
7. 1.5

Could I get CDMF75 IC15 for every one of these entries?
1. Cc1cc(NC(=O)C2CCc3cc(-c4noc(C5CC5)n4)ccc32)ccn1 (single isomer, unassigned) [Compound 20B]
2. Cc1cc(NC(=O)C2CCc3cc(-c4noc(C5CC5)n4)ccc32)ccn1 (single isomer, unassigned) [Compound 20A]
3. CCc1nc(-c2ccc3c(c2)CCC3C(=O)Nc2cnn(C)c2)no1 (stereo not drawn)
4. O=C1NC2(CCc3cc(-c4noc(C(F)F)n4)ccc32)CO1 (single isomer, unassigned) [Compound 38A]

1. 33.2
2. 1.2
3. 3.9
4. 1.8

Every entry's value here was drawn from patent US11964967B2.
